Measured values drawn from patent US5565479A for this set.

Molecular target: 5-HT3 receptor (Cavia porcellus, UniProt O70212)
Construct: Distal colons were excised from male Hartley guinea pigs; from tissue; host or cells: distal colon strips of male Hartley guinea pigs
Sequence (O70212 20-490): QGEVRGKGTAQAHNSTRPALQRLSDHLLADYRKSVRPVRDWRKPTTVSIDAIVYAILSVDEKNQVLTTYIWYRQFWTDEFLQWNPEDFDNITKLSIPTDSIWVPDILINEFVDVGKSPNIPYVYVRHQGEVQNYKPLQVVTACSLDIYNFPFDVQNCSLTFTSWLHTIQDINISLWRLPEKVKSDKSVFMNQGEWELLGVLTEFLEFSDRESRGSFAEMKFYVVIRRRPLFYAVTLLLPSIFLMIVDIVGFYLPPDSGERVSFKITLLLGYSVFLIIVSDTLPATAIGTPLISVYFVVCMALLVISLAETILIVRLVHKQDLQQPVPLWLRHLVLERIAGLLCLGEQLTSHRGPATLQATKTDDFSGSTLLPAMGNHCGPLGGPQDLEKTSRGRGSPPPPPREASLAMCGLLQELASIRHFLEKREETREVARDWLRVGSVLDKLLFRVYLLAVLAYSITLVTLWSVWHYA
Assay: 5-HT3 receptor agonistic activity: contractile response of isolated guinea pig distal colon strips
Format: cell-based
Conditions: read-out: Max. response
Experimental endpoint: Emax (%)
Respond with the bare value in %.

# input Return reported Emax; argument: c1ccc2c(c1)Cc1sc(Cc3c[nH]cn3)nc1-2
# output 89.9

====

Target: 5-HT3 receptor (Cavia porcellus, UniProt O70212)
Construct: Distal colons were excised from male Hartley guinea pigs; from tissue; host or cells: distal colon strips of male Hartley guinea pigs
Assay: 5-HT3 receptor agonistic activity: contractile response of isolated guinea pig distal colon strips
Format: cell-based
Conditions: read-out: Max. response
Description: Distal colons were excised from male Hartley guinea pigs (500 to 800 g) to prepare strips of about 20 mm. Each strip was longitudinally suspended in a Magnus tube, and contractile response was isometrically measured.
Form field: Emax (one value per entry).
Kindly report the value followed by its unit.

Compound	Emax
c1ccc2c(c1)ccc1sc(Cn3ccnc3)nc12	78.2%

// below: Emax requested for another compound
# input # lookup: Emax of O=C(O)/C=C/C(=O)O.c1ccc2c(c1)CCc1sc(Cc3c[nH]cn3)nc1-2 [Example 3, fumarate]
# output 80.3%

====

Target: 5-HT3 receptor (Cavia porcellus)
Construct: Distal colons were excised from male Hartley guinea pigs; from tissue; host or cells: distal colon strips of male Hartley guinea pigs
Assay: 5-HT3 receptor agonistic activity: contractile response of isolated guinea pig distal colon strips
Format: cell-based
Settings: read-out: Max. response
Where a name gives a salt, the structure may show the parent alone.
Experimental endpoint: Emax

Molecule	Emax
c1ccc2c(c1)Cc1sc(Cn3ccnc3)nc1-2 [Example 10, fumarate]	60.9%
Cn1cncc1Cc1nc2c(s1)Cc1ccccc1-2	42.6%

Next molecule, please.
# input Under 5-HT3 receptor (Cavia porcellus): Emax value of c1ccc2c(c1)CCCc1sc(Cc3c[nH]cn3)nc1-2 ?
# output 50%
